ASSAYED_SYSTEM: FGFR1 (UniProt P11362)
Sequence (P11362 whole entry, looked up): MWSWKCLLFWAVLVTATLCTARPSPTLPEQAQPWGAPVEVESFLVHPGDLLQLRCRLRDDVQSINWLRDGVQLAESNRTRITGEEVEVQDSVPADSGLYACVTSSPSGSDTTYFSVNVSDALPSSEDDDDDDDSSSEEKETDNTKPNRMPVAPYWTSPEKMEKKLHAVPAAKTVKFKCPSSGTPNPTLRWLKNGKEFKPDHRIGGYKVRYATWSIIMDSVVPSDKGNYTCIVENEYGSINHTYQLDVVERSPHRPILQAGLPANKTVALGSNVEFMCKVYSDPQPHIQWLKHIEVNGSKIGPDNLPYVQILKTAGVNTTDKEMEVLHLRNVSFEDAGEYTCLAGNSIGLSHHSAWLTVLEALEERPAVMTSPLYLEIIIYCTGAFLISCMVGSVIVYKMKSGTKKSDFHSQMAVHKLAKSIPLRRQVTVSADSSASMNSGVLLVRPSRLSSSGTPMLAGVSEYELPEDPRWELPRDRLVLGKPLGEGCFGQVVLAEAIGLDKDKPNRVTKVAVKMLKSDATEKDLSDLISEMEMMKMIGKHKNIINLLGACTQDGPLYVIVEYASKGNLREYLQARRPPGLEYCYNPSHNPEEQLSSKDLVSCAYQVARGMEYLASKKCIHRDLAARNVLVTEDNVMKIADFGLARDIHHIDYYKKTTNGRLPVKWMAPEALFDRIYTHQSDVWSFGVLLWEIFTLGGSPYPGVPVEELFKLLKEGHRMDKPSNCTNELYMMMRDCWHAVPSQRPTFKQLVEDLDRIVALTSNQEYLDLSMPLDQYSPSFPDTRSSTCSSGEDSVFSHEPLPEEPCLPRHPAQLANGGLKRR
ASSAY_TEXT: phosphorylation enrichment, bacterial display (enrichment ratio); higher = better substrate or ligand; peptides without Tyr show the background;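 further: 11-residue human phosphosite peptides and single-mutation variants displayed on the E. coli surface, counted by deep sequencing, each peptide's frequency after selection divided by its frequency in the unselected input library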;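 further: frequency after pTyr selection over input frequency; kinase dosed for 20-30% of maximal phosphorylation in three min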
MEASUREMENT_NAME: phosphorylation enrichment

| SEQUENCE_CODE | MEASUREMENT_NAME | ASSAY_RESULT |
| --- | --- | --- |
| IRTIDYRFTVS [IDS_Y497_W502S_YF] | phosphorylation enrichment | 0.483 |
| QLGLQYSQGLV [EIF2B4_Y214_R209Q] | phosphorylation enrichment | 0.478 |
| VHFLVYHHHHH [CACNA1H_Y519_H516Y_YF] | phosphorylation enrichment | 0.437 |
| ANNPLYKEVTS [ITGB3_Y773_A776V] | phosphorylation enrichment | 0.495 |
| QEIATYRRLLE [KRT14_Y415] | phosphorylation enrichment | 0.509 |
| SLAARYFNWVS [FLT4_Y1230_YF] | phosphorylation enrichment | 0.555 |
| AAYNKYDQERF [CDC73_Y293_R292K] | phosphorylation enrichment | 0.332 |
| FRDALYKFIVD [PHEX_Y250_M253I_YF] | phosphorylation enrichment | 0.44 |
| KLIETCFSKNF [PLP1_Y50_Y50C_YF] | phosphorylation enrichment | 0.47 |
| IVKAFYVHARA [AIPL1_Y268_R270H_YF] | phosphorylation enrichment | 0.479 |
| GMRHGYGVRQS [JPH2_Y141] | phosphorylation enrichment | 0.355 |
| GRLFAYPDTHC [CAT_Y358_R363C] | phosphorylation enrichment | 0.466 |
| YRDALYKFIVD [PHEX_Y250_M253I] | phosphorylation enrichment | 0.952 |
| CSGNCYLDIRP [FBN1_Y1535_R1530C] | phosphorylation enrichment | 0.646 |
| TWSPKYTLRSH [STRN3_Y474_N471S] | phosphorylation enrichment | 0.353 |
| LYEDCYLLGTS [ASS1_Y87_R86C] | phosphorylation enrichment | 1.26 |
| DFLEKYFKFGC [NNMT_Y24_S29C_YF] | phosphorylation enrichment | 0.497 |
| SVTCTYSPGLN [TP53_Y126_A129G] | phosphorylation enrichment | 0.511 |
| RGDCMYASLLG [AR_Y269_P271S] | phosphorylation enrichment | 1.45 |
| PLLTDYSPQLQ [OTC_Y345_S340P] | phosphorylation enrichment | 1.19 |
| PGLKGYPGLSG [COL4A2_Y306_R304K] | phosphorylation enrichment | 0.369 |
| LMLVLYGRIFL [HTR1A_Y215_R220L] | phosphorylation enrichment | 0.851 |
| NPQKSYFILLF [WAS_Y83_R86L_YF] | phosphorylation enrichment | 1.01 |
| KLVDVYVNDAF [PGK1_Y161_G158V] | phosphorylation enrichment | 0.635 |
| IEELTYIIKQD [STX5_Y137] | phosphorylation enrichment | 0.551 |
| DCAAIYGNEPE [AKR1A1_Y50] | phosphorylation enrichment | 0.588 |
| EAKENYGKTLK [CHL1_Y291_T287A] | phosphorylation enrichment | 0.456 |
| KGEDFYSVTCH [FHL1_Y149_C150S] | phosphorylation enrichment | 0.849 |
| MTRDIYETDFF [INSR_Y1185_YF] | phosphorylation enrichment | 0.56 |
| AASTDYYKRGD [PDHA1_Y242] | phosphorylation enrichment | 0.592 |
| NAGAFYVLSTL [FLVCR2_Y325_A326V] | phosphorylation enrichment | 0.483 |
| GLNKGYRMVVN [HINT1_Y94] | phosphorylation enrichment | 0.388 |
| TVSTRYTQPQP [SARG_Y259] | phosphorylation enrichment | 0.446 |
| VQVAYYTMMMN [SPATA17_Y84] | phosphorylation enrichment | 8.59 |
| DPFHVYIKNRV [KCNE3_Y95_YF] | phosphorylation enrichment | 0.455 |
| EVKEAYMGSVL [ACAT1_Y90_N93S] | phosphorylation enrichment | 0.407 |
| QVQQIYSDSDL [MIB1_Y376_R371Q] | phosphorylation enrichment | 0.85 |
| MLEAPYVDRNS [F10_Y384_V382A] | phosphorylation enrichment | 0.455 |
| DGQVNYEGFVQ [CALM1_Y139_E141G] | phosphorylation enrichment | 0.496 |
| AELVPYFMEHH [PTPN11_Y80_Q79P_YF] | phosphorylation enrichment | 0.531 |
| ASFPLYEPAKM [MKI67_Y340] | phosphorylation enrichment | 0.426 |
| EEQKKNFNAMK [SCN5A_Y1494_Y1494N_YF] | phosphorylation enrichment | 0.38 |
| ERSMSYSDESR [SMG1_Y143] | phosphorylation enrichment | 0.537 |
| SFCFRYRCAPR [SUMF1_Y344_A348P_YF] | phosphorylation enrichment | 0.509 |
| ENGPYYTSYPP [GDAP2_Y488] | phosphorylation enrichment | 2.7 |
| PDSVDYRKKGY [CTSK_Y121] | phosphorylation enrichment | 1.06 |
| SQPASYQRRLL [PPIG_Y320] | phosphorylation enrichment | 0.472 |
| TIQSMYGCDVG [HLA-B_Y123_L119I] | phosphorylation enrichment | 0.579 |
| GIMEEYQLPYY [BMPR1A_Y453_V450M] | phosphorylation enrichment | 2.23 |
| EPVSDYINANV [PTPN11_Y304_I309V] | phosphorylation enrichment | 0.541 |
| RAIGYYSATSK [FAM120A_Y328] | phosphorylation enrichment | 0.438 |
| RARPPYTVAAD [ANKZF1_Y572] | phosphorylation enrichment | 0.39 |
| MGCVNYGAYIN [GLB1_Y485_R482C] | phosphorylation enrichment | 0.469 |
| FETNVYVDKNL [PTCHD3_Y688_K685T] | phosphorylation enrichment | 0.436 |
| WGTAEYDSVVA [MAP1A_Y1883] | phosphorylation enrichment | 0.583 |
| KVASVYEAPGF [NT5C_Y65] | phosphorylation enrichment | 0.481 |
| IPTPAYQSLPA [PDCD6IP_Y727_S730L] | phosphorylation enrichment | 0.497 |

Where do the numbers come from? From the supplement of paper PMC10065799.
